# Measurement Target: cyclic GMP specific phosphodiesterase (PDE 5) (Homo sapiens, UniProt O76074)
# Construct: isolated from human platelet lysates by ion exchange chromatography using a Mono-Q column
# Assay Protocol: PDE 5 inhibitory activity (enzyme isolated from human platelet lysates, [3H]-cyclic GMP substrate)
# Experimental Conditions: PDE 5 from human platelet lysates; 0.25 mM [3H]-cyclic GMP as substrate
Reported Metric: IC50 (nM)

// worked examples, IC50 included
Compound String: CCCOc1ccc(S(=O)(=O)N2CC(CN(C)C)C2)cc1-c1nc2c([nH]1)c1nncn1c(=O)n2CCC
IC50 (nM): 0.97
--
Compound String: CCCOc1ccc(S(=O)(=O)N2C[C@@H]3C[C@H]2CN3C)cc1-c1nc2c([nH]1)c1nncn1c(=O)n2CCC
IC50 (nM): 0.51
--
Compound String: CCCCn1c(=O)n2cnnc2c2[nH]c(-c3cc(S(=O)(=O)N4CCN(CCO)CC4)ccc3OCCC)nc21
IC50 (nM): 4
--
Compound String: CCCOc1ccc(S(=O)(=O)Nc2ccncc2)cc1-c1nc2c([nH]1)c1nncn1c(=O)n2CCC
IC50 (nM): 1.5
--
Compound String: CCCOc1ccc(S(=O)(=O)N2CCN(C)CC2)cc1-c1nc2c([nH]1)c1nncn1c(=O)n2CCC
IC50 (nM): 14

P = CCCOc1ccc(S(=O)(=O)N2CCN(C(C)(C)CO)CC2)cc1-c1nc2c([nH]1)c1nncn1c(=O)n2CCC
Q = CCCOc1ccc(S(=O)(=O)N2C[C@@H](C)N[C@@H](C)C2)cc1-c1nc2c([nH]1)c1nncn1c(=O)n2CCC
Problem: Select the item with the higher value of IC50 from the options P and Q listed. Give the label under which the chosen entry appears.
Solution: P
